Here, each record is paired with measured pIC50 data.
Target: Beta-glucuronidase (Homo sapiens, UniProt P08236)
Sequence (P08236 whole entry): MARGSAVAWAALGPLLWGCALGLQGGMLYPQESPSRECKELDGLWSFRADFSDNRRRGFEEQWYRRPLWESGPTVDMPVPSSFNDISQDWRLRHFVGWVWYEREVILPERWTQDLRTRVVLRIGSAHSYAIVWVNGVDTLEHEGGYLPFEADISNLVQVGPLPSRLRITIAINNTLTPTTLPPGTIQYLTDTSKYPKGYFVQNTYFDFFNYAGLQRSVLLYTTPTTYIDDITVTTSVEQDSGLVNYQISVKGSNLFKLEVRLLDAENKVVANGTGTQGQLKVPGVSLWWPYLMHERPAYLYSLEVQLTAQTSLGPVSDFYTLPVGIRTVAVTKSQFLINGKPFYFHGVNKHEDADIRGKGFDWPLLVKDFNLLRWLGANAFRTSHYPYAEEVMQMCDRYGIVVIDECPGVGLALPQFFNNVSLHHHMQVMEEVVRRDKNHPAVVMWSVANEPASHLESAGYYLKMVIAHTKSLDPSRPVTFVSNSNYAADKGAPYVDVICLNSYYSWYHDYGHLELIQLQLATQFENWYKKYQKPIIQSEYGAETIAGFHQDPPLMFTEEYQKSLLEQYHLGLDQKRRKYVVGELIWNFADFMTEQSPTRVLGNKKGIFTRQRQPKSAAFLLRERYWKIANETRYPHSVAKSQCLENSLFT
Just so you know, pIC50 here is -log10 of the concentration in molar units; reply with that number alone.

Q: So what does the record say about pIC50 for Cc1ccc(C(c2c[nH]c3ccc(C(=O)N/N=C/c4ccc(F)c(Br)c4)cc23)c2c[nH]c3ccc(C(=O)N/N=C/c4ccc(F)c(Br)c4)cc23)cc1 ?
Result: 4.80

Q: So what does the record say about pIC50 for Cc1ccc(C(c2c[nH]c3ccc(C(=O)N/N=C/c4ccccn4)cc23)c2c[nH]c3ccc(C(=O)N/N=C/c4ccccn4)cc23)cc1 ?
Result: 4.88

Q: So what does the record say about pIC50 for COc1ccc(/C=N/NC(=O)c2ccc3[nH]cc(C(c4ccc(C)cc4)c4c[nH]c5ccc(C(=O)N/N=C/c6ccc(OC)cc6)cc45)c3c2)cc1 ?
Result: 4.48

====

Target: Beta-glucuronidase (Homo sapiens, UniProt P08236)
ENDPOINT_NAME: IC50 (µM)
Report the value in µM with no unit label.

- LINE_NOTATION: "Cc1ccc(C(c2c[nH]c3ccc(C(=O)N/N=C/c4ccccc4F)cc23)c2c[nH]c3ccc(C(=O)N/N=C/c4ccccc4F)cc23)cc1"
  OBSERVED_MEASUREMENT: 1.2
- LINE_NOTATION: "Cc1ccc(C(c2c[nH]c3ccc(C(=O)N/N=C/c4cccc(O)c4)cc23)c2c[nH]c3ccc(C(=O)N/N=C/c4cccc(O)c4)cc23)cc1"
  OBSERVED_MEASUREMENT: 5.87

Next:
Q: So what does the record say about IC50 for Cc1ccc(C(c2c[nH]c3ccc(C(=O)N/N=C/c4cccc(Cl)c4)cc23)c2c[nH]c3ccc(C(=O)N/N=C/c4cccc(Cl)c4)cc23)cc1 ?
Result: 6.9

====

Target: Beta-glucuronidase (Homo sapiens, UniProt P08236)
pIC50: −log10 of the molar value.
// NOT MET strictly below 6 in pIC50; MET otherwise

- LINE_NOTATION: "Cc1ccc(C(c2c[nH]c3ccc(C(=O)N/N=C/c4cccc(O)c4O)cc23)c2c[nH]c3ccc(C(=O)N/N=C/c4cccc(O)c4O)cc23)cc1"
  GROUP_LABEL: "MET"

Q: Say whether Cc1ccc(C(c2c[nH]c3ccc(C(=O)N/N=C/c4ccncc4)cc23)c2c[nH]c3ccc(C(=O)N/N=C/c4ccncc4)cc23)cc1 shows pIC50 of 6 or more.
Result: NOT MET

Q: Say whether Cc1ccc(C(c2c[nH]c3ccc(C(=O)N/N=C/c4ccc(F)cc4)cc23)c2c[nH]c3ccc(C(=O)N/N=C/c4ccc(F)cc4)cc23)cc1 shows pIC50 of 6 or more.
Result: NOT MET

Q: Say whether Cc1ccc(C(c2c[nH]c3ccc(C(=O)N/N=C/c4ccccc4Cl)cc23)c2c[nH]c3ccc(C(=O)N/N=C/c4ccccc4Cl)cc23)cc1 shows pIC50 of 6 or more.
Result: NOT MET

Q: Say whether Cc1ccc(C(c2c[nH]c3ccc(C(=O)N/N=C/c4ccc(Cl)cc4)cc23)c2c[nH]c3ccc(C(=O)N/N=C/c4ccc(Cl)cc4)cc23)cc1 shows pIC50 of 6 or more.
Result: NOT MET

====

Target: Beta-glucuronidase (Homo sapiens)
Test: Inhibition of human beta-glucuronidase
ENDPOINT_NAME: pIC50
Just so you know, pIC50 here is -log10 of the concentration in molar units; reply with that number alone.

Previously resolved entries follow.
- LINE_NOTATION: "COc1ccc(O)c(/C=N/NC(=O)c2ccc3[nH]cc(C(c4ccc(C)cc4)c4c[nH]c5ccc(C(=O)N/N=C/c6cc(OC)ccc6O)cc45)c3c2)c1"
  pIC50: 5.68
- LINE_NOTATION: "COc1ccc(/C=N/NC(=O)c2ccc3[nH]cc(C(c4ccc(C)cc4)c4c[nH]c5ccc(C(=O)N/N=C/c6ccc(OC)cc6O)cc45)c3c2)c(O)c1"
  pIC50: 5.46

Q: So what does the record say about pIC50 for COc1ccc(/C=N/NC(=O)c2ccc3[nH]cc(C(c4ccc(C)cc4)c4c[nH]c5ccc(C(=O)N/N=C/c6ccc(OC)c(O)c6I)cc45)c3c2)c(I)c1O ?
Result: 4.36
